biological target: Voltage-gated potassium channel subunit beta-2 (Rattus norvegicus); test: KvBeta enzyme negative modulators, primary screen, biochemical, NADPH fluorescence (AID 622); details: recombinant KvBeta, 4-cyanobenzaldehyde reduction, at 10 µM, hits give high values;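 further: slope of raw intensity against log time taken from 70 to 1610 s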
Assay metric: fluorescence slope
Hey, just send me the number, nothing else.

**Query** In one line, give reported fluorescence slope of the entry O=C(Cc1ccccc1)Nc1ccc(CN2CCOCC2)cc1 .
**Result** -0.418

**Query** Give fluorescence slope for CC1Cc2nc(SCC(=O)Nc3ccc4c(c3)OCO4)n(-c3ccc(F)cc3)c(=O)c2S1 (configuration not stated)
**Result** -0.401

**Query** Please supply the value of reported fluorescence slope for the item COc1ccc(/C(O)=C2/C(=O)C(=O)N(c3nc(C)c(C)s3)C2c2ccco2)cc1 (configuration not stated)
**Result** -0.446

**Query** Identify measured fluorescence slope associated with CCOn1c(=O)c(=O)n(OCc2ccccc2)c2ccccc21
**Result** -0.345

**Query** Look up fluorescence slope of COc1ccc(S(=O)(=O)C(C#N)c2nc3ccccc3nc2N2CCCC(C)C2)cc1 (configuration not stated) and report it.
**Result** -0.417

**Query** Identify fluorescence slope associated with the compound CC(NC(=O)Nc1cccnc1)(C(F)(F)F)C(F)(F)F
**Result** -0.454

**Query** Answer with the recorded fluorescence slope of COc1ccc(CN(C(=O)c2oc3ccccc3c2C)C2CCS(=O)(=O)C2)cc1 (configuration not stated) only.
**Result** -0.444

**Query** Report fluorescence slope for COCCN(Cc1cc2cc3c(cc2n2nnnc12)OCO3)C(=O)c1ccccc1F
**Result** -0.352

**Query** State, in one line, measured fluorescence slope of Cc1nnc2n(C3CCCCC3)c(=O)c3c4c(sc3n12)COC(C)(C)C4
**Result** -0.389

**Query** Return fluorescence slope (reported value) for this compound: CN1C(=O)C2(c3ccccc31)C1CCCC=C1C(C#N)=C(N)C2(C#N)C#N (configuration not stated)
**Result** -0.472

**Query** Provide only the value of recorded fluorescence slope for COc1ccc(CC(=O)OCN2C(=O)c3ccccc3C2=O)cc1
**Result** -0.359

**Query** Fill in reported fluorescence slope for this entry: COc1cccc(NC(=O)C2CCCN(S(=O)(=O)c3cccc4cccnc34)C2)c1 (configuration not stated)
**Result** -0.559

**Query** Item Cc1nnc(N2C(=O)c3oc4ccccc4c(=O)c3C2c2ccco2)s1 (configuration not stated) : provide fluorescence slope
**Result** -0.579

**Query** Give the measured fluorescence slope for O=C(CN1CCN(Cc2ccc3c(c2)OCO3)CC1)Nc1ccc2c(c1)OCCO2
**Result** -0.583

**Query** Tell me fluorescence slope reported for CCOC(=O)C1CCN(c2c(N(C)Cc3ccco3)c(=O)c2=O)CC1
**Result** -0.576

**Query** Specify reported fluorescence slope for the compound shown: COc1ccc(C(O)C(CN2CCOCC2)c2ccccc2)cc1 (configuration not stated)
**Result** -0.44

**Query** State its fluorescence slope: Cn1c(=O)c2c(nc(CN3CCCCC3)n2CCc2ccccc2)n(C)c1=O
**Result** -0.572

**Query** Return value of fluorescence slope for input CN1CCN(Cc2nc3c(c(=O)n(C)c(=O)n3C)n2Cc2ccccc2Cl)CC1 , no commentary.
**Result** -0.409

**Query** Determine its reported fluorescence slope: O=C1CC(c2cccs2)CC2=C1C(c1ccccc1)n1ncnc1N2 (configuration not stated)
**Result** -0.597

**Query** Please look at this compound and report its fluorescence slope: CCCc1cc(C(=O)Nc2ccccc2SC)no1
**Result** -0.597

**Query** Tell me its fluorescence slope given CCOc1ccccc1-n1c(SCC(=O)NC2CCCC2)nnc1-c1ccoc1C as the entry.
**Result** -0.543

**Query** Please report the measured fluorescence slope for C(=C\c1ccccc1)/CN1CCN(Cc2ccc3c(c2)OCCO3)CC1
**Result** -0.442
